target: T1, LILRB2-ECD-HIS (SinoBiological Cat #: 14132-H02H) (human, UniProt Q8N423 22-460); experiment: SPR (Carterra LSA), antibody captured, antigen injected;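 further: kd obtained from kinetic analysis of antibody binding to the antigen, with association and dissociation phases fitted in the instrument software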
T1 construct: Bought protein; also called monomeric antigen LILRB2-ECD-HIS; not shown: His tag
T1 sequence (Q8N423 other isoform, or with tags, fused parts or gaps H02H H02H): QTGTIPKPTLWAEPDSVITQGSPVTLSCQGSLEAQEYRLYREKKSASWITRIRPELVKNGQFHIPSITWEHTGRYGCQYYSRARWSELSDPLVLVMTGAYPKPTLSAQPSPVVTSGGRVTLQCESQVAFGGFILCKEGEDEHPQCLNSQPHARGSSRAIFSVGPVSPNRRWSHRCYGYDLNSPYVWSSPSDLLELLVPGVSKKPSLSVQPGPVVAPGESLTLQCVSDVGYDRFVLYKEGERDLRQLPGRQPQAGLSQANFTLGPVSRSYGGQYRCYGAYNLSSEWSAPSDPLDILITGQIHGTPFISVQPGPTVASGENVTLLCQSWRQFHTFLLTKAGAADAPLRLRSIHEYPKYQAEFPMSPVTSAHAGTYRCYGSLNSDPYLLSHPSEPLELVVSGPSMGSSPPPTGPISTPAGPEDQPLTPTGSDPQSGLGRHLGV
Entries whose Kd is below 0.2 nM take 1; entries at or above 0.2 nM take 0.

# BINDER, ASSIGNED_CLASS
measured = [
    ("#1 (antibody, human IgG1, V domains shown, also called D2M002-001) VH: EVQLQQSGPELVKPGASVKMSCKASGYTFTRYVMHWVKQKPGQGLEWIGYINPNNDGTKYNEKFKGKVTLTSDKSSSTAYMELSSLTSEDSAVYYCARGDLEILPYYDHARNAMDYWGQGTSVTVSS VL: DIVMTQSPASQSASLGESVIITCRASGNIHNYLAWYQQKQGKSPQLLVYNAKTLADGVPSRFSGSGSGTQYSLKINSLQPEDFGTYYCQHFWSSPPTFGGGTKLELK", 0),
    ("#18 (antibody, human IgG1, V domains shown, also called D2M002-018) VH: EVQLQQSGAELMKPGASVKISCKTTGNTFSSYWIEWVKQRPGHDLEWIGEILPGSGSTNYNEKFKGKATFTADTSSNTAYMQLNSLTSEDSAVYYCARSGAGGYDSGAFAYWGQGTLVTVSA VL: DIVLTQSPASLAVSLGQRATISCRASESVDSYGNSFMHWYQQKPGQPPKLLIYRTSNLESGIPARFSGSGSRTDFTLTINPVEADDVATYYCQQSNEDPWTFGGGTKLEIK", 1),
    ("#17 (antibody, human IgG1, V domains shown, also called D2M002-017) VH: EVQLQQSGAELMKPGASVKISCKTTGNTFSSYWIEWVKQRPGHDLEWIGEILPGSGSSNYNEKFKGKATFTADTSSNTAYMQLNSLTSEDSAVYYCARSGAGGYDSGAFAYWGQGTLVTVSA VL: DIVLTQSPASLAVSLGQRATISCRASESVDSYGNSFMHWYQQKPGQPPKLLIYRTSNLESGIPSRFSGSGSRTDFTLTINPVEADDVATYYCQQSNEDPWTFGGGTKLEIK", 1),
    ("#11 (antibody, human IgG1, V domains shown, also called D2M002-011) VH: EVQLQQSGAELMKPGASVKISCKATGYTFSNYWIEWVKQRPGHGLEWIGEILPGSGSTDYNEKFEGKATFTADTSSNTAYMQLSSLTSEDSAVYYCARSGAGGYDSGAFAYWGQGTLVTVSA VL: DIQMTQSPASLAVSLGQRATISCRASESVDTYGNSFMHWYQQKPGQPPKLLIYRTSNLESGIPARFSGSGSRTDFTLTINPVEADDVATYYCQQSNEDPWTFGGGTKLEIK", 1),
    ("#3 (antibody, human IgG1, V domains shown, also called D2M002-003) VH: QIQLLQSGPELVKPGASVKMSCKASGYTFTRYVMYWVKQKPGQGLEWIGYINPDNDGTKYNEKFKGKATLTSDKSSSTAYMELSSLTSEDSAVYYCARGDLELLPYYDYVRNAMDYWGQGTSVTVSS VL: DIQMTQSPASLSASVGETVTITCRASGNIHNYLAWYQQKQGKSPQLLVYNAKTLADGVPSRFSGSGSGTQYSLKINSLQPEDFGSYYCQHFWSTPPTFGGGTKLEIK", 0),
]
